Origin of the recorded values: patent US20100173832A1

System: MCF-7 cell line
Assay type: cell-based
EXPERIMENTAL SETUP: 24 hours incubation, XTT; read-out: Cancer LC50 Human breast cancer MCF-7
Non-standard residues stand in square brackets, D forms with d. Residues, ends and D or L forms follow the SMILES beside them. *: point of attachment. 12Ado = NCCCCCCCCCCCC(=O)O; Octanoyl = CCCCCCCC(=O)*
# CC50 values compiled below
MEASURED ATTRIBUTE: CC50 (µM)

COMPOUND	MEASURED ATTRIBUTE	LIMIT SIGN	ENDPOINT RESULT
CCCCCCCC(=O)N[C@@H](CCCCN)C(=O)N[C@@H](CCCCN)C(=O)NCCCCCCCCCCCC(=O)N[C@@H](CCCCN)C(=O)N[C@@H](CCCCN)C(=O)NCCCCCCCCCCCC(=O)N[C@@H](CCCCN)C(N)=O [C8K(KNC12K)2NH2] (Octanoyl-KK[12Ado]KK[12Ado]K-NH2)	CC50	=	20
CCCCCCCC(=O)N[C@@H](CCCCN)C(=O)NCCCCCCCCCCCC(=O)N[C@@H](CCCCN)C(=O)N[C@@H](CCCCN)C(=O)NCCCCCCCCCCCC(=O)N[C@@H](CCCCN)C(=O)N[C@@H](CCCCN)C(=O)NCCCCCCCCCCCC(=O)N[C@@H](CCCCN)C(N)=O [C8(KNC12K)3NH2] (Octanoyl-K[12Ado]KK[12Ado]KK[12Ado]K-NH2)	CC50	=	8.7
NCCCCCCCCCCCC(=O)N[C@@H](CCCCN)C(=O)N[C@@H](CCCCN)C(=O)NCCCCCCCCCCCC(=O)N[C@@H](CCCCN)C(N)=O [NC12KKNC12KNH2] (HELM PEPTIDE1{[NCCCCCCCCCCCC(=O)[*:2]].K.K.[O=C(CCCCCCCCCCCN[*:1])[*:2]].K.[am]}$$$$V2.0)	CC50	>	16
